Kindly state growth for each of the entries shown.
- Tested on: UO-31 renal
- Assay Overview: NCI-60 one-dose screen, 48 h (100 = growth as untreated, 0 = no growth, -100 = all killed)
- Test Parameters: 10 µM unless noted
Compounds without any hit were thinned out: in the full panel of roughly 83,000, 20% have a hit.
Give bare numbers, in %.

Reference set, count: 4
COc1c(C2CC(=O)Nc3c2c(C)nn3-c2nc3ccccc3[nH]2)cc2c(c1OC)OCO2 (stereo unspecified)
45.4
Cc1c(C(=O)NCCCc2ccccc2)sc2ncc(-c3ccc(Br)cc3)n12
92
CCOC(=O)c1sc2ncc(-c3ccc(C)cc3)n2c1C
78.2
O=C(CSc1nc2ccccc2[nH]1)Nc1cccc(Cl)c1
77.6

Each of the following entries comes with a recorded value; kindly state growth for each.
1. Nc1ccccc1-c1cc2c(c3c1[nH]c1ccccc13)CCCCC2
2. O=c1cc(SCc2ccccc2)nc[nH]1

[out]
1. 96.7
2. 103
